Entry source: ChEMBL document CHEMBL1150379

test: Antiproliferative activity against fibroblast cells after 48 hrs by SRB assay; assay type: cell-based
# Lookup of reported IC50 keyed by entry
Give the number; µM is assumed, so skip it.

CCCCCCCCCCCCCCCCNC(=O)[C@@H]1CSC(Cc2ccccc2)N1 (stereo not given in full)
15.3
CNC(=O)c1cc(Oc2ccc(NC(=O)Nc3ccc(Cl)c(C(F)(F)F)c3)cc2)ccn1
15.1
CCCCCCCCCCCCCCCCCCNC(=O)[C@@H]1CNC(c2ccccc2)=N1
111
CCCCCCCCCCCCCCCCNC(=O)[C@@H]1CNC(c2ccc(NC(C)=O)cc2)=N1
14.8
CCCCCCCCC/C=C/CCCCCCCNC(=O)c1c[nH]c(-c2ccccc2)n1
23.9
CCCCCCCCCCCCCCCCCCNC(=O)c1c[nH]c(-c2ccccc2)n1
47.4

INPUT: # get_value(readout='IC50', item= CCCCCCCCCCCCCCCCNC(=O)c1c[nH]c(-c2ccccc2)n1 )
OUTPUT: 27.9

INPUT: # get_value(readout='IC50', item= CCCCCCCCCCCCCCNC(=O)[C@@H]1CNC(c2ccccc2)=N1 )
OUTPUT: 17.3

---

test: Antiproliferative activity against fibroblast cells after 48 hrs by SRB assay; assay type: cell-based
readout name: IC50 (µM)
Give the number; µM is assumed, so skip it.

CCCCCCCCC/C=C/CCCCCCCNC(=O)[C@@H]1CNC(c2ccccc2)=N1
24.6
CCCCCCCCCCCCCCCCNC(=O)[C@H]1CC[C@@H](c2ccccc2)N1
46.6
CCCCCCCCCCCCCCCCNC(=O)[C@@H]1CNC(c2ccccc2)=N1
59.6
CCCCCCCCC/C=C/CCCCCCCNC(=O)[C@@H]1CSC(C(C)c2ccccc2)N1 (stereo partly specified)
237
CC(=O)Nc1ccc(CC2N[C@H](C(=O)Nc3ccc4c(c3)Cc3ccccc3-4)CS2)cc1 (stereo partly specified)
15.3
CCCCCCCCCCCCCCNC(=O)c1c[nH]c(-c2ccccc2)n1
42.7
CCCCCCCCCCCCCCCCNC(=O)[C@@H]1CNC(Cc2cc(OC)c(OC)c(OC)c2)=N1
15.8
CCCCCCCCC/C=C/CCCCCCCNC(=O)[C@@H]1CSC(Cc2ccccc2)N1 (stereo partly specified)
15.5

INPUT: # get_value(readout='IC50', item= CCCCCCCCCCCCCCCCNC(=O)[C@@H]1CNC(c2cc(OC)c(OC)c(OC)c2)=N1 )
OUTPUT: 13.3

INPUT: # get_value(readout='IC50', item= CCCCCCCCCCCCCCCCNC(=O)[C@@H]1CSC(C(C)c2ccccc2)N1 (stereo partly specified) )
OUTPUT: 55.7
